# Test system: IGROV1 ovarian
# Measurement Notes: NCI tumour cell line growth inhibition, 48 h
Measure Name: TGI (µM)
Field format: number, assumed µM, no unit text.

Query: State the recorded TGI for this entry: O=C1CS(=O)(=O)C(c2cccc(Oc3ccccc3)c2)N1c1ccc(Cl)cc1 (stereo not given)
Response: 39

Query: Queued: COC(=O)[C@@H]1C=C[C@H](OC2OC(COC(C)=O)C(OC(C)=O)C(OC(C)=O)C2OC(C)=O)n2c(=O)n(-c3ccccc3)c(=O)n21 (stereo not given in full)
Response: 12

----------
# Test system: HCC-2998 colon
# Measurement Notes: NCI tumour cell line growth inhibition, 48 h; in the data active means GI50 below about 0.43 µM; inactive means the rest
Bench note: report the call from active, inactive

Query: For this compound, state the assay outcome: CCOC(=O)Nc1cc2c(c(N)n1)N=C(c1ccc(OC)cc1)CN2
Response: active

Query: Now give it for NC(CSC(c1ccccc1)(c1ccccc1)c1ccccc1)C(=O)NCC(=O)O (stereo not drawn) too.
Response: inactive

Query: Another: Cc1ccc(C2=C(c3ccc(C)cc3)C3(c4ccc(C)cc4)C4C(=O)OC(=O)C4C2(c2ccc(C)cc2)S3=O)cc1 (stereo not drawn)
Response: inactive

----------
# Tested on: UO-31 renal
# Measurement Notes: NCI tumour cell line growth inhibition, 48 h; in the data active means GI50 below about 0.43 µM; inactive means the rest
Please reply with one of these outcomes: 1 (active), 0 (inactive)

Query: Kindly provide the recorded test outcome for the following molecule: [N-]=[N+]=NCCCn1c2c(c3ccc([N+](=O)[O-])cc3c1=O)C(=O)c1ccccc1-2
Response: 0

Query: // query: COc1cc(Nc2ncccc2C(=O)Nc2nc3ccc(F)cc3s2)cc(OC)c1OC
Response: 0

Query: How about Nc1n[nH]c2cccc(C#Cc3cccc(NC(=O)c4cccc(C(F)(F)F)c4)c3)c12 ?
Response: 0

Query: Next record, please: C=C1c2c(C)nn(-c3ccc(C#CCOC4OC(CO)C(O)C(O)C4O)cc3)c2N(C)C23C[C@H]1C1(C)c4c(C)nn(-c5ccc(C#CCOC6OC(CO)C(O)C(O)C6O)cc5)c4N(C)C(C)(C[C@H]12)C3 (stereo partly drawn)
Response: 0

Query: Cool, now CCOc1cccc(/C=N/NC(=O)c2cccc(Nc3ccnc(C(F)(F)F)c3)c2)c1O
Response: 0

Query: Same for Cc1cn(-c2cc(NC(=O)c3cccc(C#Cc4cccc5[nH]nc(N)c45)c3)cc(C(F)(F)F)c2)cn1
Response: 0

Query: Try CC(=O)OC1OC([C@H]2c3cccc(O)c3C(=O)c3c(O)cc(C)cc32)C(O)C(O)C1O (stereo partly drawn) next.
Response: 1

Query: Also CS(=O)(=O)CCNCc1coc(-c2ccc3ncnc(Nc4ccc(OCc5ccccc5)cc4)c3c2)c1 ?
Response: 0

----------
Task for the reader: assign each of the following molecules its reported TGI.
# Test system: 786-0 renal
# Measurement Notes: NCI tumour cell line growth inhibition, 48 h

Query: Give its TGI value. Item: CNC(=O)OCc1c(COC(=O)NC)c(-c2ccc(-c3ccccc3)cc2)n(C)c1C
Response: 10.2 µM

Query: Next up: O=S(=O)(O)c1ccc(N=Nc2ccc3c(S(=O)(=O)O)cccc3c2O)c2ccccc12
Response: > 100 µM

Query: Cool, now CN(c1ccc(NC(=O)Nc2c(Cl)cccc2Cl)cc1)c1ccnc(Nc2cccc(CS(C)(=O)=O)c2)n1
Response: 10.6 µM

Query: Item: O=c1oc(-c2ccccc2)cn1-c1ccccc1
Response: > 100 µM

Query: Then what about the molecule Cc1cc(C)nc(NS(=O)(=O)c2ccc(Nc3c4ccccc4nc4ccc(C(=O)Nc5ccc(S(N)(=O)=O)cc5)cc34)cc2)n1 ?
Response: > 100 µM

Query: What would you report for CCCCC1(NN=C2CCCCC2)C(=O)N(c2ccccc2)N(c2ccccc2)C1=O ?
Response: > 100 µM

Query: Same thing, different molecule: O=c1[nH]c2cc(C(F)(F)F)ccc2nc1C(F)(F)F
Response: > 100 µM

Query: // next record O=C1OC(CCCN2CCCCC2)(c2ccccc2)CC12CCCC2 (stereo not given)
Response: > 100 µM

Query: For OCC12C=CC(C1)c1ccccc12 (stereo not given) then?
Response: > 100 µM

Query: Would you mind doing N[C@H](C(=O)O)[C@@H]1CC(Cl)=NO1 as well?
Response: > 1000 µM

Query: // next record CCCCCCCC(CC(=O)NC(CO)C(=O)NC(CO)CC(C)C)OC(=O)CC(CCCCCCC)OC(=O)CC(CCCCCCC)OC1OC(C)C(O)C(OC2OC(C)C(OC(C)=O)C(O)C2O)C1O (stereo not given)
Response: 18.5 µM

Query: // next record Nc1cc([N+](=O)[O-])ccc1C(=O)N1CCC[C@H]1CO
Response: > 100 µM

Query: Likewise for O=C(NC(=O)c1c(F)cccc1F)Nc1cccc(Oc2ncc(Cl)cn2)c1 ?
Response: > 100 µM

Query: Same question, CN(C)CCOc1ccc([N+](=O)[O-])c2cccnc12 this time
Response: > 100 µM

Query: Would you kindly repeat that for COc1ccc2c(c1)/C(=C\c1c(Cl)[nH]c3cc(C)c(OC)cc13)C(=O)N2 ?
Response: 13 µM

Query: CC(=O)SCCC(NC(=S)Nc1ccccc1)P(=O)(Oc1ccccc1)Oc1ccccc1 (stereo not given) , same question.
Response: > 100 µM

Query: How about O=C(NC1=C(Cl)C(=O)c2ccccc2C1=O)c1ccccc1 ?
Response: > 100 µM

Query: Now this one: O=C(O)CO[C@@]12C#C/C=C\C#C[C@@H]3N(C(=O)Oc4ccccc4)c4ccccc4[C@]14O[C@@]34CCC2
Response: > 100 µM

Query: Same again, this time with O=C1CS(=O)(=O)C(c2cccc(Oc3ccccc3)c2)N1c1ccc(Cl)cc1 (stereo not given)
Response: 36.5 µM

Query: Subsequent entry: Cc1cccc(Cl)c1NCC(O)CN1CCN(C)CC1 (stereo not given)
Response: > 100 µM

----------
# Test system: A498 renal
# Measurement Notes: NCI tumour cell line growth inhibition, 48 h; in the data active = GI50 below about 0.43 µM; inactive = the rest
Use one of these outcomes when replying: active, inactive

Query: Assay result, entry C=C(C)[C@@H]1CC[C@]2(COCCCN)CC[C@]3(C)[C@H](CC[C@@H]4[C@@](C)(CCCNCCCN)[C@H](C(=C)C)CC[C@]43C)[C@@H]12 — outcome?
Response: inactive

Query: Would you kindly repeat that for Nc1n[nH]c2cccc(C#Cc3cccc(NC(=O)c4cccc(C(F)(F)F)c4)c3)c12 ?
Response: inactive

Query: Also need O=C(/C=C/c1ccccc1)Nc1ncc(Cc2ccccc2Cl)s1 , thanks.
Response: active

Query: Check CCN(CC)CCNC(Cc1ccccc1)c1ccc(OCc2ccccc2)cc1 (stereo not given) too.
Response: inactive

Query: Thanks! And CCCOC(=O)N[C@H]1CCc2c(Cl)c(OC)c(OC)c(OC)c2-c2ccc(SC)c(=O)cc21 ?
Response: active

----------
# Test system: OVCAR-5 ovarian
# Measurement Notes: NCI tumour cell line growth inhibition, 48 h; in the data active means GI50 below about 0.43 µM; inactive means the rest
Parameter call: string, one of active, inactive

Query: Please indicate how the test categorized CCCOC(=O)N[C@H]1CCc2c(Cl)c(OC)c(OC)c(OC)c2-c2ccc(SC)c(=O)cc21 .
Response: active

Query: Request: Cn1c(Cl)c(/C=C2/C(=O)Nc3ccccc32)c2ccccc21
Response: inactive

Query: Ok, now CCCC(C)c1ccc(OCCCCCCN2CCNCC2)cc1 (centres undefined)
Response: inactive

Query: Quick one: Cc1cn(-c2cc(NC(=O)c3cccc(C#Cc4cccc5[nH]nc(N)c45)c3)cc(C(F)(F)F)c2)cn1
Response: inactive

Query: Quick one: O=C1C=CC(=O)C2C1C1(Cl)C(Cl)=C(Cl)C2(Cl)C1(Cl)Cl (centres undefined)
Response: inactive

Query: Repeat for the following compound: Cc1cc(Cl)ccc1OCC(=O)Nc1nc2c(Cl)cccc2s1
Response: inactive

Query: Do the same for CN(c1ccc(NC(=O)Nc2c(Cl)cccc2Cl)cc1)c1ccnc(Nc2cccc(CS(C)(=O)=O)c2)n1 please
Response: inactive

Query: Could you do the same for CC1(C)N=C(N)N=C(N)N1c1ccc(CCC(=O)Nc2ccc(S(=O)(=O)F)cc2)c(Cl)c1 , please?
Response: inactive

Query: Try this compound next: O=c1[nH]c2ccccc2cc1-c1nc2ccc(Cl)cc2[nH]1
Response: inactive

----------
# System: RXF 393 renal
# Measurement Notes: NCI tumour cell line growth inhibition, 48 h
Measure Name: log10 of TGI (log10 of the value in µM)
Hello, just confirming the data are log10 of TGI with units of µM.

Query: Give log10 of TGI (RXF 393 renal) of the following compound: CNC(=O)OCc1nc(SSC(C)(C)C)n(C)c1COC(=O)NC
Response: 0.45

Query: And for Cc1ccc(C2=C(c3ccc(C)cc3)C3(c4ccc(C)cc4)C4C(=O)OC(=O)C4C2(c2ccc(C)cc2)S3=O)cc1 (stereo unspecified) ?
Response: 1.48

Query: Thanks! And CC(C)CNc1nc(-c2ccccc2Cl)nc2ccccc12 ?
Response: 1.49

Query: Again, but for COc1ccc2c(c1)CN1C(=N2)CSC1c1cccc(Br)c1 (stereo unspecified)
Response: 1.75

Query: Now consider O=C1/C(=C\c2ccc([N+](=O)[O-])cc2)N(S(=O)(=O)c2ccccc2)c2ncccc21 .
Response: 1.57

Query: Thanks! And CCC1=CCN(c2cc(C)ccn2)OC1c1ccc(OC)cc1 (stereo unspecified) ?
Response: 1.76

Query: Note, next up: C#CC1(O)C(COP(=O)(O)OCC(COP(=O)(O)OCC2OC(n3cc(F)c(=O)[nH]c3=O)CC2O)OCCCCCCCCCCCCCCCCCC)OC(n2ccc(N)nc2=O)C1O (stereo unspecified)
Response: 0.80

Query: Also check COc1ccc2c(c1)C(=O)/C(=C/c1cccc(OCC(=O)c3ccccc3)c1)O2
Response: 0.90

Query: Follow-up entry: COc1ccc(C2=C[C@]3(O)CCCN3C[C@@H]2c2ccc(OC)c(OC)c2)cc1
Response: -1.65

Query: // same read-out, input: Cc1ccc2c(ccc(/C=C/c3ccc(O)c4ncccc34)[n+]2C)c1
Response: 1.58

Query: Again, but for CNC1(c2cc3ccccc3s2)CCCCC1
Response: 1.83

Query: Now the same for Cc1cn(-c2cc(NC(=O)c3cccc(C#Cc4cccc5[nH]nc(N)c45)c3)cc(C(F)(F)F)c2)cn1
Response: 1.33

Query: Now the same for NC(CSC(c1ccccc1)(c1ccccc1)c1ccccc1)C(=O)NCC(=O)O (stereo unspecified)
Response: 1.29
